Target: human recombinant COX-2 (Homo sapiens, UniProt P35354)
Construct: expressed in transfected cells; host or cells: Cos-A2 cells, stably transfected
Assay: COX-2 inhibition, COS cell assay
Assay type: cell-based
Conditions: COS cells, COX-2; read-out: Inhibition of COX Enzymes in COS Cell Assays, COX-2 IC50
Each entry below lists one item and its recorded IC50 value.
Response body: numeric value in nM, unit text excluded.

Illustrative cases are given below, each with its answer.
[
  {
    "Compound": "CC(C)S(=O)(=O)C1C(=O)N(Cc2ccc(F)cc2)C(=O)c2ccccc21 (stereo not shown) [Example 8]",
    "Recorded number": 90
  },
  {
    "Compound": "CC(C)S(=O)(=O)C1C(=O)N(Cc2ccc(F)c(F)c2)C(=O)c2ccc(Cl)cc21 (stereo not shown) [Example 10]",
    "Recorded number": 100
  },
  {
    "Compound": "CC(C)S(=O)(=O)C1C(=O)N(Cc2ccc(F)c(F)c2)C(=O)c2ccccc21 (stereo not shown) [Example 9]",
    "Recorded number": 200
  }
]

Now examine the next entry.
[in] Need IC50 of O=C1c2ccccc2C(S(=O)(=O)CC(F)(F)F)C(=O)N1Cc1ccccc1 (stereo not shown) [Example 11] , thanks.
[out] 64000

* * *

Quick reference for inhibition at 0.1 µg/mL among some molecules
Molecular target: UniProt:P23219
Sequence (P23219 24-599): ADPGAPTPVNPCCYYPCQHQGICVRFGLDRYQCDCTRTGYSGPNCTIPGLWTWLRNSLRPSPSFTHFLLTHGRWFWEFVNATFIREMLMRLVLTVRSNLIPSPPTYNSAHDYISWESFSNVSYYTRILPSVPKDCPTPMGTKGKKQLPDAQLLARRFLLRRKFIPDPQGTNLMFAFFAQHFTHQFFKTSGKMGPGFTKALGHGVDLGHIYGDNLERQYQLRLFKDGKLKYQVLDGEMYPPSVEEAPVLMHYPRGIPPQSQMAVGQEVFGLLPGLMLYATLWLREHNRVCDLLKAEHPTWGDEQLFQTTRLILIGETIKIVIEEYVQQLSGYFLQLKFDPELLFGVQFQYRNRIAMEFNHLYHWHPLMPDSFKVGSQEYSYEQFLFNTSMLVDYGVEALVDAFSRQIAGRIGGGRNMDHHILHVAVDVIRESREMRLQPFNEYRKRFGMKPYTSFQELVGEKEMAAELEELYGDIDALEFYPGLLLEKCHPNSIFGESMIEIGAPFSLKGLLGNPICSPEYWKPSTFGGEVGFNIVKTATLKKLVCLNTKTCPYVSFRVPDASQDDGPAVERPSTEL
Experiment: COX-1 inhibition, microsomal assay
Conditions: 20 min, read-out: % Inhibition of COX Enzymes in Microsomal Assays, COX-1
Give just the number in %; leave the unit off.

[
  {
    "Molecule": "CCCCS(=O)(=O)C1C(=O)N(Cc2ccccc2)C(=O)c2ccccc21 (centres unmarked) [Example 4]",
    "System name": "UniProt:P23219",
    "Unit symbol": "%",
    "inhibition at 0.1 µg/mL": 4
  }
]

[in] Look up inhibition at 0.1 µg/mL: CC(C)S(=O)(=O)C1C(=O)N(Cc2ccc(Cl)cc2)C(=O)c2ccccc21 (centres unmarked) [Example 7]
[out] -3

[in] What about this molecule? CC(C)S(=O)(=O)C1C(=O)N(Cc2ccc(F)c(F)c2)C(=O)c2ccc(Cl)cc21 (centres unmarked) [Example 10]
[out] 13

[in] Item: O=C1c2ccccc2C(S(=O)(=O)c2cccs2)C(=O)N1Cc1ccccc1 (centres unmarked) [Example 21]
[out] 17

[in] O=C1c2ccccc2C(S(=O)(=O)c2ccc3ccccc3c2)C(=O)N1Cc1ccccc1 (centres unmarked) [Example 15] , same question.
[out] 23

[in] Also O=C1c2ccccc2C(S(=O)(=O)c2ccc(Cl)cc2)C(=O)N1Cc1ccccc1 (centres unmarked) [Example 19] , if possible.
[out] 52

[in] Follow-up entry: O=C1c2ccccc2C(S(=O)(=O)c2ccc([N+](=O)[O-])cc2)C(=O)N1Cc1ccccc1 (centres unmarked) [Example 20]
[out] 21

[in] Follow-up item: CC(C)S(=O)(=O)C1C(=O)N(Cc2ccccc2F)C(=O)c2ccccc21 (centres unmarked) [Example 2]
[out] -1

[in] Also CC(C)S(=O)(=O)C1C(=O)N(Cc2ccc(F)c(F)c2)C(=O)c2ccccc21 (centres unmarked) [Example 9] ?
[out] 10

[in] Entry to check: CC(C)S(=O)(=O)C1C(=O)N(Cc2ccccc2)C(=O)c2ccc(Cl)cc21 (centres unmarked) [Example 1]
[out] 10

[in] Then this molecule: O=C1c2ccccc2C(S(=O)(=O)c2ccccc2)C(=O)N1Cc1ccccc1 (centres unmarked) [Example 12]
[out] 17

[in] Consider next the molecule CC(C)S(=O)(=O)C1C(=O)N(Cc2cccc(Cl)c2)C(=O)c2ccccc21 (centres unmarked) [Example 6] in the same way.
[out] -10

[in] One more molecule: CC(C)(C)c1ccc(S(=O)(=O)C2C(=O)N(Cc3ccccc3)C(=O)c3ccccc32)cc1 (centres unmarked) [Example 17]
[out] 17

[in] And then CC(C)S(=O)(=O)C1C(=O)N(Cc2ccccc2)C(=O)c2ccccc21 (centres unmarked) [Example 5] , what is it?
[out] -6

[in] Try this molecule next: COc1ccc(S(=O)(=O)C2C(=O)N(Cc3ccccc3)C(=O)c3ccccc32)cc1 (centres unmarked) [Example 16]
[out] 33

[in] Next: Cc1ccc(S(=O)(=O)C2C(=O)N(Cc3ccccc3)C(=O)c3ccccc32)cc1 (centres unmarked) [Example 14]
[out] 59

[in] Lookup O=C1c2ccccc2C(S(=O)(=O)CC(F)(F)F)C(=O)N1Cc1ccccc1 (centres unmarked) [Example 11]
[out] 4

[in] Would you mind doing O=C1c2ccccc2C(S(=O)(=O)c2ccc(Br)cc2)C(=O)N1Cc1ccccc1 (centres unmarked) [Example 13] as well?
[out] 44

[in] Repeat for the following molecule: O=C1c2ccccc2C(S(=O)(=O)c2ccc(F)cc2)C(=O)N1Cc1ccccc1 (centres unmarked) [Example 18]
[out] 48

[in] Consider next the molecule CCCS(=O)(=O)C1C(=O)N(Cc2ccccc2)C(=O)c2ccccc21 (centres unmarked) [Example 3] in the same way.
[out] -9

* * *

Biological target: UniProt:P35354
Sequence (P35354 18-604): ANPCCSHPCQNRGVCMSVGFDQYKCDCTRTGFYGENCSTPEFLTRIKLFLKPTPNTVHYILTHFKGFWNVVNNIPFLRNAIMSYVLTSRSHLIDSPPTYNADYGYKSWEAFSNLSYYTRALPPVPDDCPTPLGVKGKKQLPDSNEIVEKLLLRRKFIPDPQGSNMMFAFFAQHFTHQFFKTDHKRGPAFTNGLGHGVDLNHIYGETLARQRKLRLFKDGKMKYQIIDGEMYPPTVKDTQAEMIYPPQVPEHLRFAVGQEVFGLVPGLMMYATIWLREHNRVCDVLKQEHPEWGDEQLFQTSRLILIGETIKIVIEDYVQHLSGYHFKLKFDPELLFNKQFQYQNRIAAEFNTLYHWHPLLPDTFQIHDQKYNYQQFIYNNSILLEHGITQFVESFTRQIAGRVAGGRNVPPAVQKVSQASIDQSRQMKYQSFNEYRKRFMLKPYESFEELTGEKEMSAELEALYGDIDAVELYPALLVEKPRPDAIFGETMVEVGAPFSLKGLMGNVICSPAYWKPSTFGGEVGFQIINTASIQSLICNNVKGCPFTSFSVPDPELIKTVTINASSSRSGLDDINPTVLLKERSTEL
Test: COX-2 inhibition, microsomal assay
Details: 20 min, read-out: % Inhibition of COX Enzymes in Microsomal Assays, COX-2
Observation type: inhibition at 1 µg/mL

Example results:
[
  {
    "Molecule": "O=C1c2ccccc2C(S(=O)(=O)c2ccc3ccccc3c2)C(=O)N1Cc1ccccc1 (centres unmarked)",
    "Observation type": "inhibition at 1 µg/mL",
    "Result": "14%"
  },
  {
    "Molecule": "CC(C)(C)c1ccc(S(=O)(=O)C2C(=O)N(Cc3ccccc3)C(=O)c3ccccc32)cc1 (centres unmarked)",
    "Observation type": "inhibition at 1 µg/mL",
    "Result": "12%"
  },
  {
    "Molecule": "O=C1c2ccccc2C(S(=O)(=O)c2ccc(Br)cc2)C(=O)N1Cc1ccccc1 (centres unmarked)",
    "Observation type": "inhibition at 1 µg/mL",
    "Result": "92%"
  }
]

Moving on to the next molecule.
[in] Quick one: inhibition at 1 µg/mL of CC(C)S(=O)(=O)C1C(=O)N(Cc2ccc(F)cc2)C(=O)c2ccccc21 (centres unmarked) ?
[out] 68%

* * *

Reported inhibition at 1 µg/mL values are given for each entry in this list.
Biological target: Human cyclooxygenase 2 (COX-2) (Homo sapiens, UniProt P35354)
Sequence (P35354 18-604): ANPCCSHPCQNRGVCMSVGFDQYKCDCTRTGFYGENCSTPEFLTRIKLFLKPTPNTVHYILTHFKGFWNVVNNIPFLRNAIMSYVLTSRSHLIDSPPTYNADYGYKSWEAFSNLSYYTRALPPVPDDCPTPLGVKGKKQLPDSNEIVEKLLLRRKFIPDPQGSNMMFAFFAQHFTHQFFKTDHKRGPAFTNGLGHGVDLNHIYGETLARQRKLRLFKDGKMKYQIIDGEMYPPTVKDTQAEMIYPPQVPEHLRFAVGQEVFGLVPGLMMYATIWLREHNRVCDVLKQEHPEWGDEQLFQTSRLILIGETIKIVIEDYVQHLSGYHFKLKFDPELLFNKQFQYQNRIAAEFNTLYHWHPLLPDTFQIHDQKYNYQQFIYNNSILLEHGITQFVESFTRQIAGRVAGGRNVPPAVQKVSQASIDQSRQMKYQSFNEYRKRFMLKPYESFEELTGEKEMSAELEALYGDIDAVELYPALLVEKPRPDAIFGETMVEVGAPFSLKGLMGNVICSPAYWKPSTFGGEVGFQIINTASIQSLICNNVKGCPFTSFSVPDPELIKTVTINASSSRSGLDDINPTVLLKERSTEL
Assay: COX-2 inhibition, microsomal assay
Conditions: 20 min, read-out: % Inhibition of COX Enzymes in Microsomal Assays, COX-2
Expressed in %, but write only the number.

[in] Find the recorded inhibition at 1 µg/mL belonging to O=C1c2ccccc2C(S(=O)(=O)c2ccc([N+](=O)[O-])cc2)C(=O)N1Cc1ccccc1 (centres unmarked) [Example 20] and report it.
[out] 37

[in] Try CC(C)S(=O)(=O)C1C(=O)N(Cc2ccc(F)c(F)c2)C(=O)c2ccc(Cl)cc21 (centres unmarked) [Example 10] next.
[out] 100

[in] Now consider CCCCS(=O)(=O)C1C(=O)N(Cc2ccccc2)C(=O)c2ccccc21 (centres unmarked) [Example 4] .
[out] 30

[in] O=C1c2ccccc2C(S(=O)(=O)c2ccc(F)cc2)C(=O)N1Cc1ccccc1 (centres unmarked) [Example 18] , same question.
[out] 66

[in] Next record, please: CCCS(=O)(=O)C1C(=O)N(Cc2ccccc2)C(=O)c2ccccc21 (centres unmarked) [Example 3]
[out] 15

[in] And then O=C1c2ccccc2C(S(=O)(=O)c2cccs2)C(=O)N1Cc1ccccc1 (centres unmarked) [Example 21] , what is it?
[out] 46

[in] Also COc1ccc(S(=O)(=O)C2C(=O)N(Cc3ccccc3)C(=O)c3ccccc32)cc1 (centres unmarked) [Example 16] , if possible.
[out] 74

[in] Another: O=C1c2ccccc2C(S(=O)(=O)c2ccc(Cl)cc2)C(=O)N1Cc1ccccc1 (centres unmarked) [Example 19]
[out] 89
